# tgt: Rac GTPase-activating protein 1 (Homo sapiens) (UniProt Q9H0H5)
# Sequence (Q9H0H5 whole entry, looked up): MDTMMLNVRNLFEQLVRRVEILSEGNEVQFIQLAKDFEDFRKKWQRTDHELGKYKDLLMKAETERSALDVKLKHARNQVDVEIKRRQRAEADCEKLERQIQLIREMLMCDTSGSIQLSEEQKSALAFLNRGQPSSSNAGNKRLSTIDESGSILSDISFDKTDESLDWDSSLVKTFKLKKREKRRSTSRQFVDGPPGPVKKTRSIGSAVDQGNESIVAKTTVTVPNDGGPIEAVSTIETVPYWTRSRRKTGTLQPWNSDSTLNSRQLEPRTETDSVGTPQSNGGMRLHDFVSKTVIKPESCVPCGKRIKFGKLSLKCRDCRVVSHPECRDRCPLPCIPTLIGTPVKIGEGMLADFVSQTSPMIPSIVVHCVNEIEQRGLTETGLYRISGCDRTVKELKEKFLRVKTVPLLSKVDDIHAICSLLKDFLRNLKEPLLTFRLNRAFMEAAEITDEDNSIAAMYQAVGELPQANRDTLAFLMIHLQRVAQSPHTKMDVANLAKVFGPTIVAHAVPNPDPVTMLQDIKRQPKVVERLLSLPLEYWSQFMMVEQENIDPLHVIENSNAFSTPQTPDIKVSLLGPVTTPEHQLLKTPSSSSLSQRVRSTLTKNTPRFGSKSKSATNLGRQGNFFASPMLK
# protocol summary: blockers of MgcRacGAP-driven Rac1 GTP hydrolysis – biochemical, ADP Hunter fluorescence, primary and confirmatory, confirmation (AID 624330);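 note: fluorescence reports GDP produced by GAP-driven GTP hydrolysis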
# conditions: MgcRacGAP-stimulated Rac1 GTP hydrolysis, at 30 µM, active compounds read high, GST-tagged Rac1 F28L mutant substrate
The whole screen tested about 340,000 compounds, of which about 2,100 (0.62%) were called active. These entries were drawn from the full list. Measured potencies and affinities stand elsewhere.
# if value of inhibition reaches 4%, tag T; if it stays below, tag F

Some solved cases for reference:
[
  {
    "molecule": "COc1ccc(/C=C2/C(=O)N(c3ccccc3)N=C2C)cc1OC",
    "tgt": "Rac GTPase-activating protein 1 (Homo sapiens) (UniProt Q9H0H5)",
    "group": "T"
  },
  {
    "molecule": "CCOc1cc(/C=C2\\C(=O)N(CCC#N)N=C2C)ccc1OCC(N)=O",
    "tgt": "Rac GTPase-activating protein 1 (Homo sapiens) (UniProt Q9H0H5)",
    "group": "T"
  },
  {
    "molecule": "COc1ccccc1NC(=O)/C(C#N)=C/c1cccnc1",
    "tgt": "Rac GTPase-activating protein 1 (Homo sapiens) (UniProt Q9H0H5)",
    "group": "T"
  },
  {
    "molecule": "COc1ccc(/C=C2/C(=O)N(c3ccccc3)N=C2C)cc1Br",
    "tgt": "Rac GTPase-activating protein 1 (Homo sapiens) (UniProt Q9H0H5)",
    "group": "F"
  },
  {
    "molecule": "Cc1ccccc1-c1cc(C(=O)O)nn1CC1CC(c2cccc([N+](=O)[O-])c2)=NO1 (stereo unspecified)",
    "tgt": "Rac GTPase-activating protein 1 (Homo sapiens) (UniProt Q9H0H5)",
    "group": "T"
  }
]

Attention now turns to another entry.
Request: // inclusive: inhibition at least 4%? input: Cc1cc(C)c(C)c(S(=O)(=O)NCCCN2CCCC2=O)c1C
Response: T

###

Reported inhibition values for a set of molecules
# tgt: Rac GTPase-activating protein 1 (Homo sapiens) (UniProt Q9H0H5)
# protocol summary: blockers of MgcRacGAP-driven Rac1 GTP hydrolysis – biochemical, ADP Hunter fluorescence, primary and confirmatory, confirmation (AID 624330);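 note: fluorescence reports GDP produced by GAP-driven GTP hydrolysis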
# conditions: MgcRacGAP-stimulated Rac1 GTP hydrolysis, at 30 µM, active compounds read high, GST-tagged Rac1 F28L mutant substrate
The whole screen tested about 340,000 compounds, of which about 2,100 (0.62%) were called active. A selection follows. Entries with a potency or affinity are not part of this list.
Please state the figure in %; there is no need to write the unit.

[
  {
    "molecule": "O=C(CN1CCN(S(=O)(=O)c2ccc(Br)cc2)CC1)Nc1ccc(F)cc1F",
    "inhibition / %": 7.71
  },
  {
    "molecule": "COc1ccc(-n2c(-c3ccc(Cl)cc3Cl)n[nH]c2=S)c(OC)c1",
    "inhibition / %": -9.67
  },
  {
    "molecule": "CCCCn1nc(C(=O)N(CC(C)C)c2c(N)n(CCCC)c(=O)[nH]c2=O)c2ccccc2c1=O",
    "inhibition / %": 9.52
  },
  {
    "molecule": "COc1ccnc(N2CCN(c3ccccc3)CC2)c1C#N",
    "inhibition / %": 8.98
  },
  {
    "molecule": "O=S(=O)(c1ccc(-c2csc(=Nc3ccccc3)n2CCCN2CCOCC2)cc1)N1CCOCC1",
    "inhibition / %": 3.34
  },
  {
    "molecule": "O=C(CN1C(=O)NC2(CCCCCC2)C1=O)N1CCN(S(=O)(=O)c2ccccc2)CC1",
    "inhibition / %": 0.28
  },
  {
    "molecule": "Cc1ccc(-n2c(C)cc(=O)cc2C)c(C)c1",
    "inhibition / %": 6.02
  },
  {
    "molecule": "CCC1=C2CC[C@H]3C(=O)N(C)C(=O)[C@H]3[C@H]2[C@@]2(Cc3ccccc3)C(=NCCOC)OC(=O)N2C1=O",
    "inhibition / %": 10.6
  }
]

Request: # query: inhibition of entry COc1ccc(/C=C2/CCCC(C(=O)C(F)(F)F)=C2O)cc1OC
Response: 6.67

Request: Moving on to the next molecule: CCCC(C)NC(=O)COC(=O)c1ccccc1SCC(=O)NC(C)CCC (stereo not given)
Response: 2.85
